Test system: MALME-3M melanoma
Test: NCI-60 one-dose screen, 48 h (100 = growth as untreated, 0 = no growth, -100 = all killed)
Settings: 10 µM unless noted
Compounds without any hit were thinned out: in the full panel of roughly 83,000, 20% have a hit.
growth: recorded values
Value expressed in %; do not type the unit.

Below, each entry is followed by its recorded growth result.
{"COMPOUND": "Cc1cc(C)cc(Nc2nccc(-c3c(-c4ccc(F)cc4)ncn3C3CCNCC3)n2)c1", "growth, %": -36.1}
{"COMPOUND": "COc1cc(C2=N/C(=C\\c3cc4ccccc4nc3Oc3ccccc3)C(=O)N2C(=N)N)cc(OC)c1OC", "growth, %": 57.8}
{"COMPOUND": "O=C1NN(c2ccccc2)C(c2ccc3c(c2)OCO3)N2CCC[C@@H]12 (stereo not given in full)", "growth, %": 94.9}
{"COMPOUND": "COc1cc(/C=C/C(=O)c2ccc(NC(=O)CSc3nnc(-c4cc(OC)c(OC)c(OC)c4)n3-c3ccccc3)cc2)cc(OC)c1OC", "growth, %": 67.7}

Hello, please tell me recorded growth for this one: CCC[S@](=O)c1ccc2nc(NC(=O)OC)[nH]c2c1
104

* * *

Tested on: HOP-92 NSCLC
Experiment: NCI-60 one-dose screen, 48 h (100 = growth as untreated, 0 = no growth, -100 = all killed)
Settings: 10 µM unless noted
About 83,000 compounds went through this panel and 20% of them were active in at least one assay; those are over-represented in the sample as a whole.
MEASUREMENT TYPE: growth (%)
Value expressed in %; do not type the unit.

Below, each entry is followed by its recorded growth result.
{"COMPOUND": "COc1ccc2[nH]c(=O)c(/C=C/C(=O)c3ccccc3OC)cc2c1", "growth / %": -12}
{"COMPOUND": "CCOC(=O)c1c(C)nc2c(c1N)/C(=C/c1ccccn1)C(=O)N2Cc1ccccc1", "growth / %": 30.5}

Hello, please tell me recorded growth for this one: CCCCCOC(=O)c1ccccc1O
88

Hello, please tell me recorded growth for this one: COc1ccccc1C(=O)/C=C/c1cc2cccc(OC)c2[nH]c1=O
10.6

Hello, please tell me recorded growth for this one: CC(C)C1=C[C@@]23CC[C@H]4[C@](C)(COCCC#N)CCC[C@]4(C)[C@H]2C[C@@H]1[C@@H]1[C@H]3[C@@H](OCCC#N)CC[C@@H]1OCCC#N
53

Hello, please tell me recorded growth for this one: Cc1ccc(C(=O)/C(=C/c2ccc([N+](=O)[O-])cc2)S(=O)Cc2ccccc2)cc1 (stereo not given)
36.9

* * *

Test system: HT29 colon
Experiment: NCI-60 one-dose screen, 48 h
Settings: 10 µM unless noted
Compounds without any hit were thinned out: in the full panel of roughly 83,000, 20% have a hit. Activity calls are given as the source filed them. The calls were made as follows: active = growth percent below 10; inactive = the rest.
Just give me one of these, please: active, inactive

Consider the following illustrative entries.
{"MOLECULE": "CC(=O)c1ccc(NC(=O)CSc2nnc(-c3cc(-c4ccc(Cl)cc4)nc4ccccc34)o2)cc1", "TARGET UNDER TEST": "HT29 colon", "CLASS": "inactive"}
{"MOLECULE": "O=C(/C(=C/c1ccc([N+](=O)[O-])cc1)SCc1ccc(F)cc1)c1ccc(Cl)cc1", "TARGET UNDER TEST": "HT29 colon", "CLASS": "active"}
{"MOLECULE": "COc1ccc2[nH]c(=O)c(/C=C/C(=O)/C=C/c3ccc(O)c(OC)c3)cc2c1", "TARGET UNDER TEST": "HT29 colon", "CLASS": "active"}
{"MOLECULE": "Cc1nc2sc(C(=O)Nc3ccccc3)c(N)c2cc1C(C)O (centres undefined)", "TARGET UNDER TEST": "HT29 colon", "CLASS": "active"}
{"MOLECULE": "O=C(CN1N=C(c2ccc(F)cc2)CCC1=O)Nc1nc2ccccc2s1", "TARGET UNDER TEST": "HT29 colon", "CLASS": "active"}

Can you look up the reported call for O=C(O)COc1ccc2c(=O)c3sc4c(=O)c5ccccc5c(=O)c4c3c(=O)c2c1 for me?
active

Can you look up the reported call for COc1ccc(NC(=O)c2sc3nc(C)c(C(C)=O)cc3c2N)cc1 for me?
inactive

Can you look up the reported call for C=C1C(=O)O[C@H]2[C@H]1CC/C(COC(=O)n1ccnc1)=C\CC[C@@]1(C)O[C@@H]21 for me?
inactive

Can you look up the reported call for O=C(CCc1nnc2sc(OCc3ccccc3)nn12)c1nc2ccc([N+](=O)[O-])cc2[nH]1 for me?
inactive

Sourced from PubChem BioAssay (NCI)
